experiment: Cmax in rat at 5 mg/kg, po; assay type: ADME, organism-based; set-up: dose 5 mg/kg, route oral; details: in vivo
MEASURED ENDPOINT: Cmax (ng/mL)
Quick reminder: number only, in ng/mL, skip the unit.

COc1nc2ccc([C@@](O)(c3ccc(C(F)(F)F)nc3)c3cncn3C)cc2c(Cl)c1CN1CCC(C(F)(F)F)CC1 : 553

Next molecule, Cmax to be filled in.
// query Answer with the recorded Cmax of COc1nc2ccc(C(O)(c3ccc(Cl)cc3)c3cncn3C)cc2c(Cl)c1Cc1ccc(-n2cccn2)cc1 (configuration not stated) only.
// result 262

###

assay: Equilibrium aqueous solubility of the compound at pH 7; type: physicochemical
Listing of entries alongside the reported solubility thermodynamic.

The cases that follow already have their solubility thermodynamic on record.
COc1nc2ccc(C(O)(c3ccc(C)nc3C)c3cnnn3C)cc2c(Cl)c1CC1CC1 (configuration not stated) : < 1 µM
COc1nc2ccc(C(O)(c3ccc(C)nc3C)c3cnnn3C)cc2c(Cl)c1CC1CCS(=O)(=O)CC1 (configuration not stated) : 13 µM
COc1nc2ccc(C(O)(c3ccc(C)nc3C)c3cnnn3C)cc2c(Cl)c1CC1CCC(F)(F)CC1 (configuration not stated) : < 1 µM

// query Return solubility thermodynamic for the following compound: COc1nc2ccc(C(O)(c3ccc(C)nc3C)c3cnnn3C)cc2c(Cl)c1OCc1ncccn1 (configuration not stated)
// result 336 µM

// query Complete the entry with solubility thermodynamic for COc1nc2ccc(C(O)(c3ccc(C)nc3C)c3cnnn3C)cc2c(Cl)c1CC(C)C (configuration not stated)
// result < 1 µM

// query Report measured solubility thermodynamic; entry is COc1nc2ccc(C(O)(c3ccc(C)nc3C)c3cnnn3C)cc2c(Cl)c1C(=O)N1CCC(C(F)(F)F)CC1 (configuration not stated)
// result 60 µM

// query Given the compound COc1nc2ccc(C(O)(c3ccc(C)nc3C)c3cnnn3C)cc2c(Cl)c1OC(C)C (configuration not stated) , write its reported solubility thermodynamic.
// result < 1 µM

###

Each item that follows carries a reported hepatic extraction ratio.
assay: in vitro; conditions: rat, liver microsomes
Description: Extraction ratio in rat liver microsomes
// return just the number, without any unit appended

COc1nc2ccc(C(O)(c3ccc(C)nc3C)c3cnnn3C)cc2c(Cl)c1CC1CCS(=O)(=O)CC1 (configuration not stated) : 0.7

Okay, next one:
// query Note hepatic extraction ratio for the molecule shown: COc1nc2ccc(C(O)(c3ccc(C)nc3C)c3cnnn3C)cc2c(Cl)c1C(=O)N1CCC(C(F)(F)F)CC1 (configuration not stated)
// result 0.8

###

assay: Volume of distribution at steady state in rat at 1 mg/kg, iv; type: ADME, organism-based; details: in vivo, read-out: Vdss
MEASURED ENDPOINT: Vd (L/kg)
Numeric answer only, unit L/kg assumed.

COc1nc2ccc([C@@](O)(c3ccc(C(F)(F)F)nc3)c3cncn3C)cc2c(Cl)c1CN1CCC(C(F)(F)F)CC1 : 5.7

Kindly consider the entry below.
// query // fetch Vd given entry COc1nc2ccc(C(O)(c3ccc(Cl)cc3)c3cncn3C)cc2c(Cl)c1Cc1ccc(-n2cccn2)cc1 (configuration not stated)
// result 4.3

###

assay: Equilibrium aqueous solubility of the compound at pH 2; assay type: physicochemical
MEASURED ENDPOINT: solubility thermodynamic

Use the examples below as a reference point.
COc1nc2ccc(C(O)(c3ccc(C)nc3C)c3cnnn3C)cc2c(Cl)c1OC1CCOCC1 (centres undefined) : > 400 µM
COc1nc2ccc(C(O)(c3ccc(C)nc3C)c3cnnn3C)cc2c(Cl)c1CN1CCC(n2cccn2)CC1 (centres undefined) : > 400 µM
COc1nc2ccc(C(O)(c3ccc(C)nc3C)c3cnnn3C)cc2c(Cl)c1CN1CC(C(F)(F)F)C1 (centres undefined) : > 400 µM
COc1nc2ccc(C(O)(c3cnc(C)n3C)C3CCOCC3)cc2c(Cl)c1CN1CCC(C(F)(F)F)CC1 (centres undefined) : > 400 µM
COc1nc2ccc(C(O)(c3ccc(Cl)cc3)c3cncn3C)cc2c(Cl)c1Cc1ccc(-n2cccn2)cc1 (centres undefined) : < 1 µM
COc1nc2ccc(C(O)(c3cc(C)nc(C)c3)c3cnnn3C)cc2c(Cl)c1CN1CCC(C(F)(F)F)CC1 (centres undefined) : > 400 µM
COc1nc2ccc(C(O)(c3ccc(C)nc3C)c3cnnn3C)cc2c(Cl)c1C1CCCC1 (centres undefined) : 273 µM
COc1nc2ccc(C(O)(c3ccc(C)nc3C)c3cnnn3C)cc2c(Cl)c1CC(F)(F)F (centres undefined) : 395 µM
COc1nc2ccc(C(O)(c3ccc(C)nc3C)c3cnnn3C)cc2c(Cl)c1OCC1CC1(F)F (centres undefined) : 371 µM
COc1nc2ccc(C(O)(c3ccc(C)nc3C)c3cnnn3C)cc2c(Cl)c1CN1CCC(F)(F)CC1 (centres undefined) : > 400 µM

// query Quick one: give measured solubility thermodynamic for COc1nc2ccc(C(O)(c3ccc(C)nc3C)c3cnnn3C)cc2c(Cl)c1CC(C)C (centres undefined)
// result > 400 µM

// query Name the recorded solubility thermodynamic of the item COc1nc2ccc([C@](O)(c3ccnc(C(F)(F)F)c3)c3cnc(C)n3C)cc2c(Cl)c1CN1CCC(C(F)(F)F)CC1 in your answer.
// result > 400 µM

// query Tell me solubility thermodynamic reported for COc1nc2ccc(C(O)(c3ccc(C)nc3C)c3cnnn3C)cc2c(Cl)c1OCC1CC1 (centres undefined)
// result > 400 µM

// query Given the molecule COc1nc2ccc(C(O)(c3ccc(C)nc3C)c3cnnn3C)cc2c(Cl)c1CN1CCC(F)CC1 (centres undefined) , write its reported solubility thermodynamic.
// result > 400 µM
